- protocol details: Solubility of indicator in polymonoguanadine fixer
- measurement conditions: 0.1% in 4 wt % polymonoguanadine fixer
assay endpoint: Solubility @ 0.1%

molecule	measurement
CCOc1ccc2c(ccc(/C=C/c3cccc([N+](=O)[O-])c3)[n+]2C)c1.COS(=O)(=O)[O-]	No
CN(C)c1ccc(C=Cc2ccccn2)cc1 [2-[4-(Dimethylamino)styryl]pyridine]	No
Cc1cc(=O)oc2cc(O)c(O)cc12	No
CCN(CC)c1ccc2c(C)cc(=O)oc2c1	Yes
CCN1/C(=C/C=C2\CCC(/C=C/c3sc4ccc(Cl)cc4[n+]3CC)=C2N(c2ccccc2)c2ccccc2)Sc2ccc(Cl)cc21.[O-][Cl+3]([O-])([O-])[O-]	No
CN(C)c1ccc2c(C(F)(F)F)cc(=O)oc2c1	No
Nc1ccc(C(=O)O)cc1	Yes
Cc1cc2nc3[nH]c(=O)[nH]c(=O)c3nc2cc1C	No
Cc1ccc2c(c1)sc(-c1ccc(N(C)C)cc1)[n+]2C.[Cl-]	No

====

- protocol details: Color of the fixer solution in the presence of the compound
- Format: physicochemical

compound	Color
CC1(C)C(/C=C/C=C/C=C/C=C2\N(CCCCS(=O)(=O)O)c3ccc4ccccc4c3C2(C)C)=[N+](CCCCS(=O)(=O)[O-])c2ccc3ccccc3c21 [Indocyanine Green]	Green
Nc1ccc(C(=O)O)cc1 [4-Aminobenzoic acid (PABA), 4-Aminobenzoic acid]	Clear
Cc1cc2nc3[nH]c(=O)[nH]c(=O)c3nc2cc1C [Lumichrome]	Clear
CCOc1ccc2c(ccc(/C=C/c3cccc([N+](=O)[O-])c3)[n+]2C)c1.COS(=O)(=O)[O-] [Pinacryptol Yellow]	Yellow
Cc1ccc2nc(-c3ccc(N=NNc4ccc(-c5nc6ccc(C)c(S(=O)(=O)[O-])c6s5)cc4)cc3)sc2c1S(=O)(=O)[O-].[Na+].[Na+] [Direct Yellow 9]	Yellow

====

- protocol details: Color of the fixer solution in the presence of the compound
- Type: physicochemical
- Excerpt: 3) “Color” refers to the color of the fixer solution in the presence of the compound.
assay endpoint: Color

structure	assay endpoint	measurement
CCN(CC)c1ccc2cc(-c3nc4ccccc4[nH]3)c(=O)oc2c1	Color	Yellow
O=S(=O)([O-])c1cc(Nc2nc(Nc3ccccc3)nc(N(CCO)CCO)n2)ccc1/C=C/c1ccc(Nc2nc(Nc3ccccc3)nc(N(CCO)CCO)n2)cc1S(=O)(=O)[O-].[Na+].[Na+]	Color	Clear
Cc1ccc2c(c1)sc(-c1ccc(N(C)C)cc1)[n+]2C.[Cl-]	Color	Yellow
Cc1cc(O)nc2cc(N)ccc12	Color	Clear
Cc1cc(=O)oc2cc(O)c(O)cc12	Color	Clear
CCN=C1C=CC(=C(c2ccc(N(CC)CC)cc2)c2ccc(N(CC)CC)cc2)c2ccccc21.Cl	Color	Blue

====

- protocol details: Solubility of indicator in polymonoguanadine fixer
- measurement conditions: 0.01% in 4 wt % polymonoguanadine fixer

compound	Solubility @ 0.01 %
CC1(C)C(/C=C/C=C/C=C/C=C2\N(CCCCS(=O)(=O)O)c3ccc4ccccc4c3C2(C)C)=[N+](CCCCS(=O)(=O)[O-])c2ccc3ccccc3c21 [Indocyanine Green]	No
Cc1cc2nc3[nH]c(=O)[nH]c(=O)c3nc2cc1C [Lumichrome]	No
Cc1cc(O)nc2cc(N)ccc12 [Carbostyril 124]	Yes
CCN1/C(=C/C=C2\CCC(/C=C/c3sc4ccc(Cl)cc4[n+]3CC)=C2N(c2ccccc2)c2ccccc2)Sc2ccc(Cl)cc21.[O-][Cl+3]([O-])([O-])[O-] [IR140]	No
Nc1ccc(C(=O)O)cc1 [4-Aminobenzoic acid (PABA), 4-Aminobenzoic acid]	Yes
CCN=C1C=CC(=C(c2ccc(N(CC)CC)cc2)c2ccc(N(CC)CC)cc2)c2ccccc21.Cl [Victoria Blue BO]	Yes
Cc1cc(=O)oc2cc(O)c(O)cc12 [4-Methylesculetin]	No
